- target: Peroxisome proliferator-activated receptor alpha (Homo sapiens, UniProt Q07869)
- Sequence (Q07869 whole entry): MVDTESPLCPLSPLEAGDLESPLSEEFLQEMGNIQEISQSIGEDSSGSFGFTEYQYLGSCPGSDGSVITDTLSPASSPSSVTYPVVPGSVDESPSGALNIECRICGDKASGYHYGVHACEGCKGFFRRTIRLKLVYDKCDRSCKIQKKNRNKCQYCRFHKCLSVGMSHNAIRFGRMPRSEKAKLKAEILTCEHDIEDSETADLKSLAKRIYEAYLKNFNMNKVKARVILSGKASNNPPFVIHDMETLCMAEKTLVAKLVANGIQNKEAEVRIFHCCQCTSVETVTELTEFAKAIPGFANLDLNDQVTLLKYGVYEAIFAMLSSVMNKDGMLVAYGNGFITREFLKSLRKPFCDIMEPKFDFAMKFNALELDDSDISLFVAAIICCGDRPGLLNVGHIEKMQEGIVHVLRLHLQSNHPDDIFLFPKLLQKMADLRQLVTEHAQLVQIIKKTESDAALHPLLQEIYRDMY
- assay method text: Agonist activity at PPARalpha

smiles | EC50
CC(C)(Oc1ccc(CCOc2ccc(/C=C/C(=O)c3cc(Cl)ccc3O)cc2)cc1)C(=O)O | 60 nM

---

- target: Peroxisome proliferator-activated receptor gamma (Homo sapiens, UniProt P37231)
- Sequence (P37231 whole entry): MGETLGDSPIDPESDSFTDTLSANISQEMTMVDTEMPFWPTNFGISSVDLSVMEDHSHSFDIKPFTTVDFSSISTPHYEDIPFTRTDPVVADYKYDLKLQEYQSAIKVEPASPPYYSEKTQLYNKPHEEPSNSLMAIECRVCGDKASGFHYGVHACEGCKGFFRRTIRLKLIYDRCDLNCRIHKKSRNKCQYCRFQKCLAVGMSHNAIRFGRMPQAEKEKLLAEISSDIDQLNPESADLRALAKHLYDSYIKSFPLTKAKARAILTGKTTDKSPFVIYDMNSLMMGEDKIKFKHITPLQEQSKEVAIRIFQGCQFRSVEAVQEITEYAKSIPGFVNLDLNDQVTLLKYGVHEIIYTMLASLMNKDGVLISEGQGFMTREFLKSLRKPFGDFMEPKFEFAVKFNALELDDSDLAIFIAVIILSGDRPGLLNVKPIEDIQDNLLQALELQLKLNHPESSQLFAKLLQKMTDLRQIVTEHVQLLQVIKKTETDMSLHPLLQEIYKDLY
- assay method text: Binding affinity to PPARgamma
pKd: −log10 of the molar value.
result type: pKd

compound | result type | readout number
CCCCC/C=C/C=C1/C(=O)C=C[C@@H]1C/C=C\CCCC(=O)O | pKd | 5.70
CCCCCC(O)/C=C\C=C/CCCCCCCC(=O)O (centres undefined) | pKd | 5.70
CCCCC/C=C\C=C\C(O)CCCCCCCC(=O)O (centres undefined) | pKd | 5.70
CC/C=C\C/C=C\C/C=C\C/C=C\C/C=C\CCCC(=O)O | pKd | 5.70
